inhibition values, listed per item
assayed-target: Dual specificity protein phosphatase 6 (Rattus norvegicus)
assay-explanation: MKP-3 phosphatase inhibitors, primary screen, biochemical, rat enzyme, in vitro (AID 425);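 further: plate controls were vehicle for no effect and reference inhibitor for full effect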
experimental-setup: recombinant MKP-3 phosphatase activity, fluorescence; at 20 µM; active compounds read high
The campaign covered roughly 110,000 compounds. About 190 (0.17%) were called active. The full list was thinned out, with actives kept by preference. Entries with a potency or affinity are not part of this list.
property-name: inhibition (%)

{"smiles-structure": "O=C(O)c1ccc(N=Cc2ccc([N+](=O)[O-])s2)cc1", "property-name": "inhibition", "recorded-measurement": 83.1}
{"smiles-structure": "O=C1C=C/C(=N\\S(=O)(=O)c2ccc(F)cc2)c2ccccc21", "property-name": "inhibition", "recorded-measurement": -2}
{"smiles-structure": "CCCCOCCCNC(=O)N[C@@H](CC(C)C)C(=O)O", "property-name": "inhibition", "recorded-measurement": 7.7}
{"smiles-structure": "O=C(c1ccccc1)c1ccc(N=Cc2ccc([N+](=O)[O-])s2)cc1", "property-name": "inhibition", "recorded-measurement": 62.2}
{"smiles-structure": "CC(=O)Nc1ccc(S(=O)(=O)/N=C2\\C=CC(=O)c3ccccc32)cc1", "property-name": "inhibition", "recorded-measurement": 111}
{"smiles-structure": "O=[N+]([O-])c1cc(N=Cc2ccc(Br)s2)ccc1Cl", "property-name": "inhibition", "recorded-measurement": 0.8}
{"smiles-structure": "O=C(c1ccco1)N1CCN(S(=O)(=O)c2ccc(Br)s2)CC1", "property-name": "inhibition", "recorded-measurement": -14.7}
{"smiles-structure": "Oc1c(Br)cc(Br)cc1C=Nc1ccc(Br)c2cccnc12", "property-name": "inhibition", "recorded-measurement": 52.9}
{"smiles-structure": "Oc1oc(-c2ccccc2)nc1C=Nc1ccc(Cl)c2cccnc12", "property-name": "inhibition", "recorded-measurement": 3.9}
{"smiles-structure": "O=[N+]([O-])c1ccc(C=NC23CN4CN(CN(C4)C2)C3)s1", "property-name": "inhibition", "recorded-measurement": 94.6}
{"smiles-structure": "CN(C)C1=C/C(=N/S(=O)(=O)c2ccccc2)c2ccccc2C1=O", "property-name": "inhibition", "recorded-measurement": 13.9}
{"smiles-structure": "CN(C)c1ccc(NC(=S)Nc2ccccc2)cc1", "property-name": "inhibition", "recorded-measurement": 0.8}
{"smiles-structure": "O=C(O)c1ccc(NC2=C(N3CCCCC3)C(=O)c3ccccc3C2=O)cc1", "property-name": "inhibition", "recorded-measurement": 1.7}
{"smiles-structure": "CC(=O)N(C)c1ccc(NC(=S)Nc2ccccc2)cc1", "property-name": "inhibition", "recorded-measurement": 2.9}
{"smiles-structure": "COc1cc(/C=C2\\SC(=Nc3ccc(C)c(Cl)c3)NC2=O)ccc1O", "property-name": "inhibition", "recorded-measurement": 3.3}
{"smiles-structure": "O=[N+]([O-])c1ccc(C=Nc2ccc(Cl)c([N+](=O)[O-])c2)s1", "property-name": "inhibition", "recorded-measurement": 67.5}
{"smiles-structure": "CC(=O)Nc1ccc(S(=O)(=O)/N=C2/NC(=O)CS2)cc1", "property-name": "inhibition", "recorded-measurement": -0.8}
{"smiles-structure": "CCc1ccc(O)c(N=Cc2cc(Br)cc(Br)c2O)c1", "property-name": "inhibition", "recorded-measurement": 1.5}
